Please provide measured binding normalized to PSGL-1 for the entries that follow.
- Target System: T1, Human fibrinogen protein (ThermoFisher, RP-43142) (human, UniProt P02671 20-629; P02675 31-491; P02679 27-453, limits assumed, natural sulfotyrosines)
- T1 construct: mature; Native dimer with 3 pairs of non-identical chains; also called gamma-fibrinogen; γ fibrinogen protein
- T1 sequence (looked up) 1: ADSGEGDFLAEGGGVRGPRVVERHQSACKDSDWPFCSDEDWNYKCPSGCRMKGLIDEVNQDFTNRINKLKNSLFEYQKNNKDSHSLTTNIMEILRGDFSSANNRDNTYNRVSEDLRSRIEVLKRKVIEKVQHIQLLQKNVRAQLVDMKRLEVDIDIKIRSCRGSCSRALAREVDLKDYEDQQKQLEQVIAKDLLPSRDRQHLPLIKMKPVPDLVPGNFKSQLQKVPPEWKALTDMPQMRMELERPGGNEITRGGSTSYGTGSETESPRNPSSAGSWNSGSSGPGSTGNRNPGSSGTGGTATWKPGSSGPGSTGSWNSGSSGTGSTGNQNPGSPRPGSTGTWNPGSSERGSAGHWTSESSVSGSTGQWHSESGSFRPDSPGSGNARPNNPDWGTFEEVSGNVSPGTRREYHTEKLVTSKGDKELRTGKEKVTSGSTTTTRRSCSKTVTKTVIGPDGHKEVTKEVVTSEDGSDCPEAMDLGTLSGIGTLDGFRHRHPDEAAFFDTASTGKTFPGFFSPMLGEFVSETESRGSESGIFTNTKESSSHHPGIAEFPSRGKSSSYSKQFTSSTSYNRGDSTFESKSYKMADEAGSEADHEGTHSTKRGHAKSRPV
- T1 sequence (looked up) 2: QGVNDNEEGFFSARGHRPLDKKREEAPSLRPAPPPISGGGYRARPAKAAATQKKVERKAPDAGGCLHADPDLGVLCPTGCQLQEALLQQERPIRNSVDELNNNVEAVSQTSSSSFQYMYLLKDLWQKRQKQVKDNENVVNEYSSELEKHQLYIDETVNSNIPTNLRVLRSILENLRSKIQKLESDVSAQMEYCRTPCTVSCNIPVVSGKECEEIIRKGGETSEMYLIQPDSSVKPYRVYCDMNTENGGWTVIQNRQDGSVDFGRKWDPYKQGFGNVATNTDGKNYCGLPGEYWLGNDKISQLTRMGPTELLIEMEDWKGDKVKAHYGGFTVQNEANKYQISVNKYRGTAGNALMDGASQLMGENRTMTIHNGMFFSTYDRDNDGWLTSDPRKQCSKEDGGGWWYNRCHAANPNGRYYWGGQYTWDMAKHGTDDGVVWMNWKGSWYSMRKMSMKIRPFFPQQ
- T1 sequence (looked up) 3: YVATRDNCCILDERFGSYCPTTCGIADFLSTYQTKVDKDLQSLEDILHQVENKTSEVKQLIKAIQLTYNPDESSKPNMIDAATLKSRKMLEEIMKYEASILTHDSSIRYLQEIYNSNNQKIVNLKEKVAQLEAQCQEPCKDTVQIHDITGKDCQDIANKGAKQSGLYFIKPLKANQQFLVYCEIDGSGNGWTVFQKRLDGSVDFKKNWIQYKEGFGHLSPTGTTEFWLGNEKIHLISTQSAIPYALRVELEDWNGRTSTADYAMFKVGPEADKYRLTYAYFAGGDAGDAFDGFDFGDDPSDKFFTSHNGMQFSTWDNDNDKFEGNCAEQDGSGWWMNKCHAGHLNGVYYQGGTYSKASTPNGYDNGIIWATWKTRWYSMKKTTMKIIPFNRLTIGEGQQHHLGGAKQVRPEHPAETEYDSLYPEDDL
- Assay Summary: ELISA, 50 nM mAb
// print number alone

Which binding normalized to PSGL-1 is reported for this binder? 03E05 (antibody, IgG4, V domains shown) VH: EVKLLESGGDLAQTGGSLRLSCVASGFTFSSYPMSWVRQAPGKGLEWVSAIRRSGATQYADSVKGRFTISRDNSKNTVYLQMNSLRVEDTAVYYCAKGTYDLGQGTLVTVSS VL: DIVMTQTPLSLPVTLGQPASISCRSSQSLVYSDGNTYLNWFHQRPGQSPRRLIYKVSNRDSGVPDRFSGSGSDTEFTLKISRVEAEDVGVYYCMQATHWPLTFGGGTKVEIK
0.05

Please look up its binding normalized to PSGL-1: 06A07 (antibody, IgG4, V domains shown) VH: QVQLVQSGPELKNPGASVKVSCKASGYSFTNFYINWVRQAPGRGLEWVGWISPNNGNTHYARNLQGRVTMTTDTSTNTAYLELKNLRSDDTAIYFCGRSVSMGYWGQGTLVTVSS VL: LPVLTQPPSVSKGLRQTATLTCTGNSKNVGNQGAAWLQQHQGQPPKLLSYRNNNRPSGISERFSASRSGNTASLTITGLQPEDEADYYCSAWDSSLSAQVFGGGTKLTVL
0.12

Form field: reported binding normalized to PSGL-1 of 01A11 (antibody, IgG4, V domains shown) VH: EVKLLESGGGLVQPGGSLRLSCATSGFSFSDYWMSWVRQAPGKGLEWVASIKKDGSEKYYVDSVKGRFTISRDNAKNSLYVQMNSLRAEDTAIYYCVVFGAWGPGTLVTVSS VL: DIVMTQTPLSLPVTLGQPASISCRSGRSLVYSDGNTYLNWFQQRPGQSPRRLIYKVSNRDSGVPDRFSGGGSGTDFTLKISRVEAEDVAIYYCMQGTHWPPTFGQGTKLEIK
0.17

Tell me the measured binding normalized to PSGL-1 of 2E12 (antibody, V domains shown, Mouse hybridoma mAb; only variable domains given) VH: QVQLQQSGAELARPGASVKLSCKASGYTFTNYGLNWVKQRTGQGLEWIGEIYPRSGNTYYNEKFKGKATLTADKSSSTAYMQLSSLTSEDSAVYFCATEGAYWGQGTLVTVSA VL: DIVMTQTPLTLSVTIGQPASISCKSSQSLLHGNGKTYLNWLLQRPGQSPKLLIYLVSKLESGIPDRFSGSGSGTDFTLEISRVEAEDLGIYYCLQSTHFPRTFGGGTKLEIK , please.
1.3

Please look up its binding normalized to PSGL-1: 03B03 (antibody, IgG4, V domains shown) VH: EVQLVQSGGGLVQPGGSLRLSCAATGFTVSRNYMTWVREAPGKGLEWVAGIYKSGTTSYTESVKGRFTISRDNSKNTLYLEMSRLRAEDTAVYYCAKSTSTWGQGTQVTVSS VL: DIVMTQSPLSLPVTLGQPASISCRASQSPGYSDGNTYLNWFQQRPGQSPRRLIYKVSNRDPGVPDRFSGSGSGTDFTLKISRVEAEDVGVYYCMQATHWPSFGQGTRLEIK
0.27
